System: Saccharomyces cerevisiae;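 also: PSI is a weighted mean of sequencing reads over stability bins, variants kept only with over 10 reads, mCherry proximal and sfGFP distal, peptide attached via GGGS linker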
Test: protein stability index of tFT-peptide fusion (C-terminal peptide) (PSI (0-1 scale)); higher = more stable (slower turnover)
Settings: genetic background: wild type; temperature: 30 C
For each record, write down the corresponding protein stability index.
Numbers only.

A selection of reference data follows.
SSTLPVYLSTTL :: 0.662
ELCFFISLVPDF :: 0.642
CGLRRRAGGGGV :: 0.7
CGFALFLCDGFV :: 0.744
SPPPTDPPQPPL :: 0.704

Okay, here is my list. What is protein stability index for each of these?
1. GGVGRAALRWYG
2. KARIADRKMWGN
3. VTLFFLFSLSPP
4. VPTRRRGNRRPA
5. CPCRCLGFRWCF

Ans.
[0.68, 0.684, 0.56, 0.788, 0.631]

Okay, here is my list. What is protein stability index for each of these?
1. RLTPFPPRPLPL
2. VFLDCCLRVFVD
3. KNAAGERGGKEG
4. VGVGGGRWCGRG
5. FWSCSTGHERVV
6. SETMFRLVADIT
7. STLRGTTESERK

Ans.
1: 0.767; 2: 0.312; 3: 0.644; 4: 0.69; 5: 0.711; 6: 0.715; 7: 0.665
